TESTED SYSTEM: bradykinin 1 receptor (B1R) of the rat (Rattus norvegicus)
Construct: expressed in transfected cells; host or cells: CHO K1 cells
Sequence (P97583 whole entry): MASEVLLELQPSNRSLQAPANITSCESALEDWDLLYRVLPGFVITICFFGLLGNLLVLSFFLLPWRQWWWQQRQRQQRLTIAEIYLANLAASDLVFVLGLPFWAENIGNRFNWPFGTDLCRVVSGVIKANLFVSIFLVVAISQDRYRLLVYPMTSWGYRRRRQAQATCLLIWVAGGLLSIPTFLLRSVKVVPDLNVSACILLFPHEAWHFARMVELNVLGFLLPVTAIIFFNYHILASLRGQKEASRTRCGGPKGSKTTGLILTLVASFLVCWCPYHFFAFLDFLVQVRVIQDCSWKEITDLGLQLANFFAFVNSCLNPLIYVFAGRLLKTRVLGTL
PROTOCOL DESCRIPTION: Functional investigation on the rat bradykinin 1 receptor (B1R), Ca2+ FLIPR assay in CHO K1 rB1R cells
Format: cell-based
SETUP CONDITIONS: CHO-K1, B1R antagonism rat; test substance 10 μM; Ca2+ FLIPR, CHO K1 rB1R cells; read-out: B1R Ant. r [10 μM] % Inhibition
VALUE KIND: inhibition at 10 µM (%)
Your answer should be a plain number; it is taken to be in %.

# example entries with known answers
>>> numeric_readout("COc1ccc(S(=O)(=O)N2CCCCC2COCC(=O)NCC2CCC(C(c3ccccc3)N(C)C)CC2)c(OC)c1 (stereo not shown)")
13
>>> numeric_readout("COc1cc(C)c(S(=O)(=O)N2CCCC(OCC(=O)NCC3CCC(C(c4ccccc4)N4CCCC4)CC3)C2)c(C)c1 (stereo not shown)")
98

So, COc1ccc(S(=O)(=O)N2CCCCC2CCOCC(=O)NCC2CCC(C(c3cccs3)N(C)C)CC2)cc1 (stereo not shown) ? Its inhibition at 10 µM was 37

So, O=C(COC1CCCN(S(=O)(=O)c2c(Cl)cc(Cl)cc2Cl)C1)NC1CCC(C(CCc2ccccc2)N2CCCCC2)CC1 (stereo not shown) ? Its inhibition at 10 µM was 20
